Measured bioavailability of individual entries
# assay info: Pharmacokinetic study in mice
# Assay type: in vivo, SD mice
# condition set: male, SD, mouse, plasma, po, gavage 100 mg/kg vs intravenous 1 mg/kg

Recorded bioavailability, per entry:
- compound: "COc1cc2nn(C3CCN(CC4CCN(c5ccc6c(c5)C(=O)N(C5CCC(=O)NC5=O)C6=O)CC4)CC3)cc2cc1NC(=O)c1cccc(C(F)(F)F)n1 (stereo not shown)"
  bioavailability: "22.3%"
- compound: "CC(C)(O)c1cc2nn(C3CCN(CC4CCN(c5ccc6c(c5)C(=O)N(C5CCC(=O)NC5=O)C6=O)CC4)CC3)cc2cc1NC(=O)c1cccc(C(F)(F)F)n1 (stereo not shown)"
  bioavailability: "13.4%"
- compound: "COc1cc2nn(C3CCN(CC4CCN(CCOc5ccc6c(c5)C(=O)N(C5CCC(=O)NC5=O)C6=O)CC4)CC3)cc2cc1NC(=O)c1cccc(C(F)(F)F)n1 (stereo not shown) [Control group 2, reference compound]"
  bioavailability: "14%"

input: Please report the measured bioavailability for CC(C)(O)c1cc2nn(C3CCN(CCCC4CCN(c5ccc6c(c5)C(=O)N(C5CCC(=O)NC5=O)C6=O)CC4)CC3)cc2cc1NC(=O)c1cccc(C(F)(F)F)n1 (stereo not shown)
output: 14.2%

###

Measured Dmax of individual entries
# test system: IRAK4 kinase protein in THP-1 cells (Homo sapiens, UniProt Q9NWZ3)
# Construct: endogenous in cells; host or cells: THP-1 cells
# assay info: Degradation of IRAK4 in THP-1 cells by Western Blot
# Assay type: cell-based
# condition set: IRAK4 degradation in THP-1 cells, 24 hours; read-out: WB Dmax
Entry rule: numbers only, all in %.

Recorded Dmax, per entry:
- molecule: "CC(C)(O)c1cc2nn(C3CCN(CCCC4CCN(c5ccc6c(c5)C(=O)N(C5CCC(=O)NC5=O)C6=O)CC4)CC3)cc2cc1NC(=O)c1cccc(C(F)(F)F)n1 (centres unmarked)"
  measured number: 90.9
- molecule: "CC(C)(O)c1cc2nn(C3CCN(CC(C)(C)N4CCN(c5ccc6c(c5)C(=O)N(C5CCC(=O)NC5=O)C6=O)CC4)CC3)cc2cc1NC(=O)c1cccc(C(F)(F)F)n1 (centres unmarked)"
  measured number: 79.1
- molecule: "CC(C)(O)c1cc2nn(C3CCN(CC4CCN(c5ccc6c(c5)C(=O)N(C5CCC(=O)NC5=O)C6=O)CC4)CC3)cc2cc1NC(=O)c1cccc(C(F)(F)F)n1 (centres unmarked)"
  measured number: 80.2
- molecule: "COc1cc2nn(C3CCN(CC4CCN(c5ccc6c(c5)C(=O)N(C5CCC(=O)NC5=O)C6=O)CC4)CC3)cc2cc1NC(=O)c1cccc(C(F)(F)F)n1 (centres unmarked)"
  measured number: 90.5

// below: Dmax requested for another molecule
input: Please report the measured Dmax for CC(C)(O)c1cc2nn(C3CCN(CCN4CCN(c5ccc6c(c5)C(=O)N(C5CCC(=O)NC5=O)C6=O)CC4)CC3)cc2cc1NC(=O)c1cccc(C(F)(F)F)n1 (centres unmarked)
output: 99.9

###

Measured WB D(%) (300 nM) of individual entries
# test system: IRAK4 kinase protein in THP-1 cells (Homo sapiens, UniProt Q9NWZ3)
# Construct: endogenous in cells; host or cells: THP-1 cells
# Sequence (Q9NWZ3 1-460): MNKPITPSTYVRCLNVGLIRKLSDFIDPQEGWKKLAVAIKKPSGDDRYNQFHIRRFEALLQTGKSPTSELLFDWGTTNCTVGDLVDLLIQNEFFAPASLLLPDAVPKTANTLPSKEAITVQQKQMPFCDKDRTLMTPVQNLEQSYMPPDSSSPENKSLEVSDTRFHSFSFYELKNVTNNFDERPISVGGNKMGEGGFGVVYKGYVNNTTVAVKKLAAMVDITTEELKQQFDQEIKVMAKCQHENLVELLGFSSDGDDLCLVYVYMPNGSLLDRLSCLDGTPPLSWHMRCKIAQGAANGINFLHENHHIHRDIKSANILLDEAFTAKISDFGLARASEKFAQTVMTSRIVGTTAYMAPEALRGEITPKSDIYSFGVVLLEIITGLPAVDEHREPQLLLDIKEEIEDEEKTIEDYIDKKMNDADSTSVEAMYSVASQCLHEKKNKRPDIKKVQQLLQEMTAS
# assay info: Degradation of IRAK4 in THP-1 cells by Western Blot
# Type: cell-based
# condition set: degradation percentage of IRAK4 in THP-1 cells, compound 300 nM, 24 hours
# Experimental: Each well of the 24-well cell culture plate was inoculated with 0.95 mL THP-1 cells (stem cell bank of Chinese academy of sciences) with a cell density of 5×10^5 cells/well. […] The total protein concentration in the supernatant of cell lysis was determined by BCA protein quantitative kit (Tiangen). […] The protein map was analyzed by Clinx chemiluminescence analysis software for grayscale values. […] The degradation rate was calculated by comparing with the grayscale correction value of the control group. […]
Hi, when you answer, please include the unit after the number. Thanks!

Recorded WB D(%) (300 nM), per entry:
- compound: "COc1cc2nn(C3CCN(CCOCCOc4ccc5c(c4)C(=O)N(C4CCC(=O)NC4=O)C5=O)CC3)cc2cc1NC(=O)c1cccc(C(F)(F)F)n1 (centres unmarked) [Control group 1, reference compound]"
  test system: "IRAK4 kinase protein in THP-1 cells (Homo sapiens, UniProt Q9NWZ3)"
  measured property: "WB D(%) (300 nM)"
  result: "73.9%"
- compound: "CC(C)(O)c1cc2nn(C3CCN(CCC4CCC5(CC4)CCN(c4ccc6c(c4)C(=O)N(C4CCC(=O)NC4=O)C6=O)CC5)CC3)cc2cc1NC(=O)c1cccc(C(F)(F)F)n1 (centres unmarked) [Example 12]"
  test system: "IRAK4 kinase protein in THP-1 cells (Homo sapiens, UniProt Q9NWZ3)"
  measured property: "WB D(%) (300 nM)"
  result: "97.4%"
- compound: "CC(C)(O)c1cc2nn(C3CCN(CC(C)(C)N4CCN(c5ccc6c(c5)C(=O)N(C5CCC(=O)NC5=O)C6=O)CC4)CC3)cc2cc1NC(=O)c1cccc(C(F)(F)F)n1 (centres unmarked) [Example 9]"
  test system: "IRAK4 kinase protein in THP-1 cells (Homo sapiens, UniProt Q9NWZ3)"
  measured property: "WB D(%) (300 nM)"
  result: "81.1%"
- compound: "COc1cc2nn(C3CCN(CC4CCN(CCOc5ccc6c(c5)C(=O)N(C5CCC(=O)NC5=O)C6=O)CC4)CC3)cc2cc1NC(=O)c1cccc(C(F)(F)F)n1 (centres unmarked) [Control group 2, reference compound]"
  test system: "IRAK4 kinase protein in THP-1 cells (Homo sapiens, UniProt Q9NWZ3)"
  measured property: "WB D(%) (300 nM)"
  result: "79.7%"
- compound: "COc1cc2nn(C3CCN(CC4CCN(c5ccc6c(c5)C(=O)N(C5CCC(=O)NC5=O)C6=O)CC4)CC3)cc2cc1NC(=O)c1cccc(C(F)(F)F)n1 (centres unmarked) [Example 2]"
  test system: "IRAK4 kinase protein in THP-1 cells (Homo sapiens, UniProt Q9NWZ3)"
  measured property: "WB D(%) (300 nM)"
  result: "90.5%"

input: Please report the measured WB D(%) (300 nM) for CC(C)(O)c1cc2nn(C3CCN(CCCC4CCN(c5ccc6c(c5)C(=O)N(C5CCC(=O)NC5=O)C6=O)CC4)CC3)cc2cc1NC(=O)c1cccc(C(F)(F)F)n1 (centres unmarked) [Example 6]
output: 89.5%
